Items are presented alongside their recorded growth.
System: SF-295 CNS
Experiment: NCI-60 one-dose screen, 48 h (100 = growth as untreated, 0 = no growth, -100 = all killed)
Conditions: 10 µM
Protocol: Cells are grown in 96 well plates and exposed to the test compound for 48 hours. Compounds are tested at a single concentration, which is 10^-5 M for most compounds. The reported endpoint is percent growth (GI% or GIPRCNT), where numbers from 0 - 100% represent growth inhibition, and numbers from -100% - 0 represent cell death. For example, a value of 40 represents 60% growth inhibition. A value of 0 means no net growth occurred over the course of the experiment. […]
The panel holds about 83,000 compounds, 20% with a hit somewhere; the sample as a whole holds those more often.
API: value field is a number in %; no unit string.

The cases that follow already have their growth on record.
| Molecule | Value Unit | growth |
| --- | --- | --- |
| O=C(CNc1nc(-c2ccccc2)cs1)Nc1ccc([N+](=O)[O-])cc1 | % | 26 |
| Cc1ccc(-c2nc(Nc3ccc(C)c(S(N)(=O)=O)c3)c3ccccc3n2)cc1 | % | 85.2 |
| CSc1nc(-c2cccc(C)c2)c2cc(-c3ccccc3)n(C)c2n1 | % | 17.3 |
| CN1CCCN(Cc2ccc(C(=O)Nc3cccc(Nc4ccc5cc(O)ccc5n4)c3)cc2C(F)(F)F)CC1 | % | -68.5 |
| O=c1nc(-c2ccccc2)cc(-c2cc3ccccc3nc2Cl)[nH]1 | % | 42.2 |
| Cc1noc2c(Cc3ccccc3)nn(CC(=O)N/N=C/c3ccc(Br)cc3)c(=O)c12 | % | 50.6 |

Next item in the queue.
Name the recorded growth of the molecule listed here: O=C1Nc2cc(Cl)ccc2/C1=C/c1cccc(OCc2ccc(Br)cc2F)c1
5.06
